meta.source: PubChem BioAssay

- tested on: Alpha-bungarotoxin (Bungarus multicinctus)
- experiment description: alpha-bungarotoxin binders on microarray, profiling panel, artefact control for SMM control protein annotation, biochemical, small-molecule microarray, Alexa647 label, 635/667 nm fluorescence (AID 1117)
- measurement context: alpha-BTX-A647 binding fluorescence, higher = more signal
readout: composite z-score

// returns reported composite z-score for input COCC1C2CC[C@H]3C(OCc4ccc(OC)cc4)OC[C@]4(C)[C@H]3C2=C(CN4C(=O)OC(C)(C)C)[C@H](C)C1COC (some centres not stated)
1.14

Please report the recorded composite z-score for "COC(=O)[C@@]1(Cc2ccc(F)cc2)[C@H]2c3cc(C(=O)N(C)C)n(Cc4c(CO)[nH]cc(C)c4=O)c3C[C@H]2CN1C(=O)c1ccccc1" .
0.0084

Please give the measured composite z-score for this compound: CCN(CC)c1ccc(N2CC=CC34O[C@@H]5/C=C\CCC(C)OC(=O)C5[C@H]3C(=O)N(C(C)CO)[C@@H]4C2=O)cc1 (some centres not stated)
-1.04

Which measured composite z-score value corresponds to "O=C1c2ccccc2[C@](Cc2ccccc2I)(C(=O)NC2CC2)[C@H](c2ccc(CO)cc2)N1Cc1ccccc1C(F)(F)F" ?
0.968

Look up composite z-score: "Cc1ccc(F)cc1S(=O)(=O)N[C@@H]1CCN(Cc2cccc3[nH]ccc23)C1"
0.111

Please give the measured composite z-score for this compound: "C=CCN1C(=O)[C@]2(O[C@H](CCO)[C@@H]([Si](C)(C)c3ccc(OC)cc3)[C@@H]2C)c2cc(N3C(=O)COc4ccccc43)ccc21"
0.429

// query composite z-score value for entry "COCCOC(=O)N1C(=O)[C@@]2(c3cc(C#CCCO)ccc31)[C@H](C(N)=O)[C@H]1C(=O)O[C@H](c3ccccc3)[C@H](c3ccccc3)N1[C@@H]2c1ccc(OCCO)cc1"
0.787

* * *

- experiment description: E. coli DRC41 culture turbidity changes, primary screen, E. coli filamentation inducer project, strain DRC41, OD650, 48 h (AID 1152);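 further: E. coli MC1000 strain DRC41 lacking acrAB efflux pump and sulA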
- measurement context: E. coli DRC41 (acrAB sulA), higher = more signal, called active from +8 up or from −8 down
readout: z-score
# respond with the number and nothing more

Use the examples below as a reference point.
COCCOC(=O)N1C(=O)[C@@]2(c3cc(C#CCCO)ccc31)[C@H](c1ccccc1OCCO)N1[C@H](c3ccccc3)[C@H](c3ccccc3)OC(=O)[C@H]1[C@@H]2C(=O)N1CCCCCCC1 = 1.59
O=C1OCCC=C[C@H]2OC34C=CCN(c5ccc(Cl)cc5)C(=O)[C@H]3N(CCCCCCO)C(=O)[C@@H]4C12 (stereo not given in full) = 1.96
COC(=O)[C@@]1(Cc2ccc(F)cc2)[C@H]2c3cc(C(=O)N4CCCC4)n(C)c3C[C@H]2CN1C(=O)c1ccccc1 = -0.327
CN1C(=O)C2C=CC(C(O)c3ccc(I)cc3)N(Nc3ccccc3)C2C1=O (stereo not given) = -1.97
CCOC(=O)C1=C[C@@H](C(C)(C)C)N(S(=O)(=O)c2ccc(C)cc2)[C@H]1c1ccccc1 = -0.492
CCOC(=O)C=Cc1cc(F)ccc1O = -1.38
O=C1OCCC/C=C\[C@H]2OC34C=CCN(c5ccc6ccccc6c5)C(=O)[C@H]3N(CCCO)C(=O)[C@@H]4C12 (stereo not given in full) = -0.52
CC1CC/C=C\[C@H]2OC34C=CCN(C(C)(C)C)C(=O)[C@H]3N(C(CO)C(C)C)C(=O)[C@@H]4C2C(=O)O1 (stereo not given in full) = -0.281
CCN(CC)c1ccc(N2CC=CC34O[C@@H]5/C=C\CCC(C)OC(=O)C5[C@H]3C(=O)N(C(C)CO)[C@@H]4C2=O)cc1 (stereo not given in full) = 1.23
C=CCC(OC(C)=O)[C@@H]1[C@@H](N(Cc2cccc3ccccc23)C(=O)Cc2ccc(F)cc2)c2cc(OCCCO)ccc2N1C(=O)c1ccc(-c2ccccc2)cc1 (stereo not given in full) = 0.341

What value of z-score has been recorded for this entry: CC(C)[C@H]1NC(=O)[C@@]23C(=O)N[C@@H](Cc4ccccc4)C2[C@H](C)[C@@]2(C)O[C@H]2C3/C=C/C/C=C\CNC(=O)[C@H](Cc2ccccc2)NC1=O (stereo not given in full)
-0.306

What value of z-score has been reported for the following compound? "COc1ccc(NC(=O)O[C@H]2[C@@H]3OC(=O)[C@H](Cc4cccc(Br)c4)C/C=C/C[C@@H](Cc4cccc(Br)c4)C(=O)O[C@H]3[C@@H](OC)O[C@@H]2CO)cc1"
0.446

Using the record for "Cc1cccc([C@H]2C[C@H]3C(I)=C[C@@H]2C(=O)[C@]32CO2)c1" , report its z-score.
-0.894

For "CC(C)C(=C=CC[C@@H](O)c1cccc(OCCO)c1)C[C@@H](O)c1ccccn1" , what is its reported z-score?
0.599

# get_value(readout='z-score', item= "COCCOC(=O)N1C(=O)[C@@]2(c3cc(C#CCC(C(=O)OC)C(=O)OC)ccc31)[C@H](C(=O)NC[C@H](O)c1ccccc1)[C@H]1C(=O)O[C@H](c3ccccc3)[C@H](c3ccccc3)N1[C@@H]2c1ccc(OCCO)cc1" )
0.0789

* * *

- Test system: XIP peptide (Xip251-270) binding
- experiment description: small-molecule binders of XIP peptide, primary screen, biochemical, small-molecule microarray, fluorescence 635/667 nm, 0.1 µg/mL protein (AID 1182)
- measurement context: fluorescent protein binding, 635 nm, higher = more signal, called active from +8 up or from −8 down
# composite z-score values compiled below
# respond with the number and nothing more

Give the measured composite z-score of "C[C@]1(C(=O)NCCN2CCOCC2)c2ccccc2C(=O)N(Cc2cc(F)cc(C(F)(F)F)c2)[C@H]1c1ccc(CO)cc1" .
1.14

Entry CN1C=C(C(=O)OCCS(C)(=O)=O)C(C(=O)OCCS(C)(=O)=O)=CC(c2ccc(CO)cc2)=CC1c1cccs1 (stereo not given) has what composite z-score?
0.514

I am curious: what composite z-score value has been reported for O=C(NCC(O)CO)[C@@]1(CCS(=O)(=O)c2ccccc2)COC(c2ccc(OCCCO)cc2)=N1 (stereo not given in full) ?
-0.119

Item "COc1ccc([Si](C)(C)[C@H]2[C@H](CCO)O[C@@]3(C(=O)N(Cc4ccc(N5C(=O)c6ccccc6Oc6ccccc65)cc4)c4ccccc43)[C@@H]2C)cc1" has what recorded composite z-score?
-0.136

I'd like to know its composite z-score. The compound in question is O=C1C2C=CC(C(O)c3ccc4c(c3)OCO4)N(Nc3ccccc3)C2C(=O)N1c1ccccc1 (stereo not given)
0.395

# lookup: composite z-score of "COCCOC(=O)N1C(=O)[C@@]2(c3ccccc31)[C@H](c1ccccc1OCCO)N1[C@H](c3ccccc3)[C@H](c3ccccc3)OC(=O)[C@H]1[C@@H]2C(N)=O"
2.37

Query: composite z-score; subject: "C=C(CCCC)C(=O)CC[C@H](OC(C)=O)c1ccc(OCCO)cc1"
0.783

// lookup composite z-score for "O=C(NCCN1CCOCC1)[C@@H]1c2ccccc2C(=O)N(Cc2ccccc2)[C@H]1c1ccc(CO)cc1"
-0.181

Fill in the blank: the reported composite z-score of "CN(C)CCCC[C@@H]1NC(=O)[C@@H]2C[C@H](C(=O)O)[C@H](c3cccc(OCCO)c3)N2C1=O" is ____.
1.02

Look up composite z-score for this compound: "C=C(CCCC)C(=O)CC[C@@H](OC(=O)c1cccnc1)c1ccc(OCCO)cc1"
0.408

* * *

- experiment description: small-molecule microarray binders of probe aShh, primary screen, biochemical, biotinylated probe, 635/667 nm fluorescence (AID 1114);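 further: probe is biotin-labelled aShh protein from a stem cell growth factor screen; measures binding of labelled protein to compounds printed on the slide; score merges feature fluorescence at 667 nm with signal-to-noise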
- measurement context: higher = more signal
Returns Y if the recorded composite z-score is greater than or equal to 0.2, and N otherwise.

Decide: is the reported value of composite z-score for O=C1C2C=CC(C(O)c3ccc4c(c3)OCO4)N(Nc3ccccc3)C2C(=O)N1c1ccccc1 (stereo not given) equal to or greater than 0.2?
N

Confirm if composite z-score reported for the molecule O=C1OCC=C[C@H]2OC34C=CCN(c5ccc6ccccc6c5)C(=O)[C@H]3N(CCCCCO)C(=O)[C@@H]4[C@@H]12 (stereo not given in full) is 0.2 or above.
N

Hi, just wondering whether CN1C(=O)C2C(C1=O)C1C=C(CCCO)C2C(c2cccs2)N1Cc1cc2c(cc1Br)OCO2 (stereo not given) shows composite z-score of 0.2 or higher.
N

Check if composite z-score >= 0.2 (inclusive). Item: "CCOC(=O)C[C@H]1[C@H](OC(=O)c2ccccc2-c2ccccc2)[C@@H](NC(=O)c2ccccc2)c2cc(OCCCO)ccc2N1C(=O)c1ccccc1"
N

Given the entry "C=C(/C(=C/C[C@@H](OC(C)=O)c1ccc(CO)o1)c1cc(C(=O)OC)ccc1OC)C(C)C" , answer whether its composite z-score meets or surpasses 0.2.
Y

Item C=CCC(OC(C)=O)[C@@H]1[C@@H](N(Cc2ccc(-c3cccc(C(F)(F)F)c3)o2)C(=O)c2cccc3ccccc23)c2cc(OCCCO)ccc2N1C(=O)Cc1ccc(OC)cc1 (stereo not given in full) with composite z-score of 0.2 or above?
N

Reported composite z-score at or above 0.2? COc1cc(NN2C(C(O)c3ccccc3)C=CC3C(=O)N(C)C(=O)C32)cc(OC)c1OC (stereo not given)
N

Given "C=C(COC)C(=O)CC[C@H](OC(=O)c1cccnc1)c1ccc(CO)o1" , state whether its composite z-score is at least 0.2.
N
